Where do these numbers come from? They come from patent US20230348852A1.

System: human limbal stem cells
Test: Human limbal stem cell population expansion and measurement (expansion factor, p63alpha-positive cells)
Assay type: cell-based
Details: 10 micromolar in XVIVO15 medium, two passages; share of Sytox Orange-positive nuclei expressing p63alpha
outcome-measure: Percentage of p63a-positive cells (%)
Numbers only, in %.

Give measured Percentage of p63a-positive cells for every item shown.
1. Cc1n[nH]cc1-c1nc(NC2(C)CC2)c2ccncc2n1
2. CC(C)(CO)Nc1nc(-c2ccncc2)nc2cnccc12
3. CC(C)(O)CC(C)(C)Nc1nc(-c2ccncc2)nc2cnccc12

[89, 89, 92]
